Biological target: T1, human CD112R on GS-J2C/CD112R effector cells (human, UniProt Q6DKI7 1-326)
T1 sequence (looked up): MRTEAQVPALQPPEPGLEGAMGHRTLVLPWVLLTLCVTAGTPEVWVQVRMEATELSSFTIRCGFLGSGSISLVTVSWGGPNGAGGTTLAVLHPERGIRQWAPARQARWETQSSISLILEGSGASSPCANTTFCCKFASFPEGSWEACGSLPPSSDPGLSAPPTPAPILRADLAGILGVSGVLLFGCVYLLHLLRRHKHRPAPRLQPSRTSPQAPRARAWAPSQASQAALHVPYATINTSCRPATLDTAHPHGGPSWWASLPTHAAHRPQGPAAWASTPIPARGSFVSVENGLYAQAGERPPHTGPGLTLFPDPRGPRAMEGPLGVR
Assay: cell-based or functional assay
MEASUREMENT_NAME: EC50 (Blocking effects of the antibodies, reporter gene method) (µg/mL)
One number for each entry, in µg/mL.

Exercise: So what does the record say about EC50 (Blocking effects of the antibodies, reporter gene method) for C67 (antibody, human IgG1, kappa, V domains shown) VH: EAQLQQSGPELVKPGASVKISCKASGYTFTDYYMNWVKQSHGKSLDWIGDINPDNGGSTYNQKFKGKATLTVDKSSSTAYMELRSLTSEDSAVYYCSASGPPYVLLDYWGQGTSVIVSS VL: DIQMTQSPASLSASVGETVTITCQTSENIYSYLAWYQQKQGKSPQLLVYNTQTLAEGVPSRFSGSRSGAQFSLKINSLQPEDFGSYYCQHHYGVPLTFGAGTKLELKR ?
Solution: 0.03

Exercise: So what does the record say about EC50 (Blocking effects of the antibodies, reporter gene method) for C55 (antibody, human IgG1, kappa, V domains shown) VH: EVQLQQSGPELVKPGASVKISCKASGYTFTDYYMSWVKQSHGKSLEWIGDVNPNNGDTSYNQKFKGKATLTVDKSSSTAYMELRSLTSEDSAVYYCAASGLPYVLMDYWGQGTSVTVSS VL: DIQMTQSPASLSASVGETVTITCRASENINSYLAWYQQKQGKSPQLLVYNTKTLTEDVPSRFSGSGSGTQFSLKINSLQPEDFGSYYCQHHYGTPLTFGGGTKLELKR ?
Solution: 0.052

More entries:
Exercise: So what does the record say about EC50 (Blocking effects of the antibodies, reporter gene method) for C3 (antibody, human IgG1, kappa, V domains shown) VH: QVQLQQSGPELVKPGASVKISCRSSGYTFTDYYINWVKQRPGQGLEWIGWIFPGSDYTYYNEKFKGKATLTVDKSSTTAYMLLSSLTSEDSAVYFCARDGGLRGPFDYWGQGTTLTVSS VL: DIQMTQSPSSLSASLGGKVTITCKASQDINKYIAWYQQKPGKGPRLLIHYTSTLQPGIPSRFSGSGSGRNSSFSISNLEPEDIATYYCLQYDNLHTFGGGTKLEIKR ?
Solution: 0.04

Data provenance is patent EP4644419A1.
